target: SfMCT (Syntrophobacter fumaroxidans); construct: expressed in transfected cells; host or cells: E. coli JA202 (MC4100 glcA::cat lldP::kan) transformed with pEXT20-SfMCT-3C-10His; experiment: cell-based; type: cell-based; details: [14C]L-lactate uptake, SfMCT-expressing E. coli JA202, pH 6.7, 30 °C, 30 min; read-out: Ki (inhibition of L-lactate transport)
Sequence (A0LNN5 whole entry): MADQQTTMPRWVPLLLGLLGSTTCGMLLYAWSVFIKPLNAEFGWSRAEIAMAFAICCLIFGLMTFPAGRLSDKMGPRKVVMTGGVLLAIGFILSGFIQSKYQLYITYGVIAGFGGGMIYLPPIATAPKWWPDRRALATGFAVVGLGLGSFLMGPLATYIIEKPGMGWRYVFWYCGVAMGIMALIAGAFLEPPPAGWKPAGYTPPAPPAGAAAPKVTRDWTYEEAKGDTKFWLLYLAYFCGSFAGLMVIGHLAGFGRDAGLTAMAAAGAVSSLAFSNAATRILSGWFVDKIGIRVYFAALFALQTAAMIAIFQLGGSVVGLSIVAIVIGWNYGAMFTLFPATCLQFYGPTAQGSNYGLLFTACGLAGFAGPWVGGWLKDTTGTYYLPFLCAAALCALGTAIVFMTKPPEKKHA
// Ki lookup, one value per entry
Value and unit, in that order.

{"molecule": "Cc1ccccc1CCC(=O)O [2M3PP, 3-(2-methylphenyl)-propionate]", "Ki": "469 nM"}

Shifting focus to the molecule that follows.
For this molecule ( O=C(O)c1ccc2ccccc2c1 [N2C, 2-naphthoate] ), measured Ki is 2400 nM

====

target: SfMCT (Syntrophobacter fumaroxidans); construct: expressed in transfected cells; host or cells: E. coli JA202 (MC4100 glcA::cat lldP::kan) transformed with pEXT20-SfMCT-3C-10His; test: cell-based; assay type: cell-based
pKi: −log10 of the molar value.
The threshold is inclusive: pKi of exactly 5 counts as 1; values below receive -1.

Example entries begin here.
{"compound": "Cc1ccc(C(=O)O)c(O)c1 [4MSA, 4-methyl-salicylate]", "measured target": "SfMCT (Syntrophobacter fumaroxidans)", "group": -1}
{"compound": "O=C(O)c1ccccc1 [BA, benzoate]", "measured target": "SfMCT (Syntrophobacter fumaroxidans)", "group": -1}
{"compound": "O=C(O)c1ccc2ccccc2c1O [1OHN2C, 1-hydroxy-2-naphthoate]", "measured target": "SfMCT (Syntrophobacter fumaroxidans)", "group": -1}
{"compound": "O=C(O)/C=C/c1ccccc1 [CA, trans-cinnamate]", "measured target": "SfMCT (Syntrophobacter fumaroxidans)", "group": 1}
{"compound": "O=C(O)c1ccccc1O [SA, salicylate]", "measured target": "SfMCT (Syntrophobacter fumaroxidans)", "group": -1}

Please check the record O=C(O)CCc1ccccc1 [3PP, 3-phenylpropionate] and state if its pKi is at or above 5.
1
